Tested on: HCT116 cells
procedure-summary: Whole cell cytotoxicity assay: Sulforhodamine B
Assay type: cell-based
run-conditions: Homo sapiens, HCT-116; 100 μM compound; 48 hours incubation with drug; Sulforhodamine B staining; read-out: % Inhibition of HCT116 cell growth @ 100 μM
property: inhibition at 100 µM (%)
Give a bare numeral; the unit % is implied.

These recorded examples may help you get a feel for the data.
1) O=C(NO)c1cnc(N2CCc3[nH]c4ccc(-c5cccc(CN6CCNCC6)c5)cc4c3C2)nc1 | 93.8
2) O=C(NO)c1cnc(N2CCc3[nH]c4ccc(-c5ccc(CO)cc5)cc4c3C2)nc1 | 92.7
3) CN1CCN(Cc2ccc(-c3ccc4[nH]c5c(c4c3)CN(c3ncc(C(=O)NO)cn3)CC5)o2)CC1 | 99.1

Query O=C(NO)c1cnc(N2CCc3[nH]c4cc(-c5cccc(CN6CCCC6)c5)ccc4c3C2)nc1 yields inhibition at 100 µM of 97.5

Taken from patent US7772245B2.
